Reference source: patent US20030148956A1

TESTED SYSTEM: T1, corticotropin releasing factor 2 receptor
T1 sequence (Q13324 whole entry, species assumed, looked up): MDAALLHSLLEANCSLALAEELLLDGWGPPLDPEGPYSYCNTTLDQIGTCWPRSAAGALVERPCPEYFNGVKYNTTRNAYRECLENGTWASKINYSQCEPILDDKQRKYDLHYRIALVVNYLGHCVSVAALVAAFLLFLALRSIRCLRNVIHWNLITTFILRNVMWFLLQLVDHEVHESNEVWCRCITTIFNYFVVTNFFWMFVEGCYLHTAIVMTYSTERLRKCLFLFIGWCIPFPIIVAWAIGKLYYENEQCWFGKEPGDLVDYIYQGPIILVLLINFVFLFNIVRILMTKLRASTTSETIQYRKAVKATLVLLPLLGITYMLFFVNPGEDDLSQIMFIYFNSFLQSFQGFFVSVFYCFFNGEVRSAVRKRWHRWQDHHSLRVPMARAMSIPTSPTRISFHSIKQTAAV
ASSAY PROTOCOL: cell-based or functional assay
Ends that are not written are not given here.
Please use Condition met for CRF2R EC50 under 20 nM and Condition not met for everything else, ties included.

# BINDER, CATEGORY
measured = [
    ("ZGPPISIDVPYHLLRKVIEIEKQEKEKQQAANNARLLARI (C-terminal amide) [SEQ ID NO 377]", "Condition met"),
    ("PSLSIDLPLFLLRTLLELEKTQSQRERAEQNARIFARV-NH2 [SEQ ID NO 331]", "Condition met"),
    ("ZGPPISIDLPFFLLRKVIEIEKQEKEKQQAANNALLLATI (C-terminal amide) [SEQ ID NO 317]", "Condition met"),
    ("ZGPPISIDLPQYLLRKMIEIEKQEKEKQQAANNALLLATI (C-terminal amide) [SEQ ID NO 227]", "Condition not met"),
    ("ZGPPISIDLPFQLLRKVIEIEKQEKEKQQAANNAHLLAHI (C-terminal amide) [SEQ ID NO 277]", "Condition not met"),
    ("Ac-DNPSLSIDLPLLLLRTLLELEKTQSQRERAEQNAIIFASV-NH2 [SEQ ID NO 347]", "Condition not met"),
]

Inquiry: Record ZGPPISIDLPYWLLRKMIEIEKQEKEKQQAANNALLLDTI (C-terminal amide) [SEQ ID NO 310] : is its CRF2R EC50 strictly below 20 nM?
Reply text: Condition met

Inquiry: Record ZGPPISIDLPFQLLRKMIEIEKQEKEKQQAANNALLLDTI (C-terminal amide) [SEQ ID NO 251] : is its CRF2R EC50 strictly below 20 nM?
Reply text: Condition met

Inquiry: Record ZGPPISIDVPIYLLRKVIEIEKQEKEKQQAANNARLLARI (C-terminal amide) [SEQ ID NO 379] : is its CRF2R EC50 strictly below 20 nM?
Reply text: Condition not met

Inquiry: Record ZGPPISIDLPQYLLRKMIEIEKQEKEKQQAANNALLLDTI (C-terminal amide) [SEQ ID NO 224] : is its CRF2R EC50 strictly below 20 nM?
Reply text: Condition not met

Inquiry: Record ZGPPISIDLPLYLLRKMIEIEKQEKEKQQAANNALLLATI (C-terminal amide) [SEQ ID NO 245] : is its CRF2R EC50 strictly below 20 nM?
Reply text: Condition met

Inquiry: Record ZGPPISIDLPLELLRKMIEIEKQEKEKQQAANNALLLATI (C-terminal amide) [SEQ ID NO 234] : is its CRF2R EC50 strictly below 20 nM?
Reply text: Condition not met
